# Test system: MDCK
# method: Cytotoxicity against dog MDCK cells assessed as cell viability measured at 100 uM after 45 hrs by Celltiter-Glo luminescence assay
# Type: cell-based, Canis lupus familiaris
measurement_name: Activity

Write Activity of `COC(=O)[C@H](CO)NC(=O)[C@]12CCC(C)(C)C[C@H]1C1=CC[C@@H]3[C@@]4(C)CC[C@H](O)C(C)(C)[C@@H]4CC[C@@]3(C)[C@]1(C)CC2` ; system used: MDCK Toxic

Write Activity of `CC1(C)CC[C@]2(C(=O)N[C@@H](CCC(=O)O)C(=O)O)CC[C@]3(C)C(=CC[C@@H]4[C@@]5(C)CC[C@H](O)C(C)(C)[C@@H]5CC[C@]43C)[C@@H]2C1` ; system used: MDCK Toxic

Write Activity of `CC1(C)CC[C@]2(C(=O)N3CCC[C@H]3C(=O)O)CC[C@]3(C)C(=CC[C@@H]4[C@@]5(C)CC[C@H](O)C(C)(C)[C@@H]5CC[C@]43C)[C@@H]2C1` ; system used: MDCK Toxic

###

The entries below come with measured CC50 at 45 h values attached.
# method: Cytotoxicity against dog MDCK cells assessed as cell viability measured after 45 hrs by Celltiter-Glo luminescence assay
# Assay type: cell-based, Canis lupus familiaris

Give the reported CC50 at 45 h for this compound. `CC1(C)CC[C@]2(C(=O)N[C@@H](CCCNC(=N)N)C(=O)O)CC[C@]3(C)C(=CC[C@@H]4[C@@]5(C)CC[C@H](O)C(C)(C)[C@@H]5CC[C@]43C)[C@@H]2C1` > 100 µM

Would you kindly look at the next entry?
Give the reported CC50 at 45 h for this compound. CCOC(=O)C1=C[C@@H](OC(CC)CC)[C@H](NC(C)=O)[C@@H](N)C1 [OSELTAMIVIR PHOSPHATE] > 100 µM

###

# Tested on: Influenza A virus H3N2
# method: Antiviral activity against Influenza A virus A/Texas/50/2012(H3N2) infected in MDCK cells inhibition of virus-induced cytopathic effect measured after 45 hrs by CellTiter-Glo luminescence assay
# Assay type: functional, organism-based
measurement_name: IC50 (µM)
The reply should contain only the number, in µM.

Give the reported IC50 for this molecule. `CC1(C)CC[C@]2(C(=O)N[C@@H](CCCNC(=N)N)C(=O)O)CC[C@]3(C)C(=CC[C@@H]4[C@@]5(C)CC[C@H](O)C(C)(C)[C@@H]5CC[C@]43C)[C@@H]2C1` 14.1

###

# method: Cytotoxicity against dog MDCK cells assessed as cell viability measured at 100 uM after 45 hrs by Celltiter-Glo luminescence assay relative to control
# Format: cell-based, Canis lupus familiaris
# condition_description: read-out: Activity
measurement_name: viability at 45 h, 100 µM (%)
The reply should contain only the number, in %.

Give the reported viability at 45 h, 100 µM for this compound. `CC1(C)CC[C@]2(C(=O)N[C@@H](CCCNC(=N)N)C(=O)O)CC[C@]3(C)C(=CC[C@@H]4[C@@]5(C)CC[C@H](O)C(C)(C)[C@@H]5CC[C@]43C)[C@@H]2C1` 75
